Quick list: Emax per entry.
biological target: glucocerebrosidase (GCase) (Homo sapiens, UniProt P04062); test: Glucocerebrosidase activation (Table 1, Exemplary Compounds and Activities); format: biochemical; conditions: activation of glucocerebrosidase; read-out: Maximum Activation (Emax)
Sequence (P04062 40-536): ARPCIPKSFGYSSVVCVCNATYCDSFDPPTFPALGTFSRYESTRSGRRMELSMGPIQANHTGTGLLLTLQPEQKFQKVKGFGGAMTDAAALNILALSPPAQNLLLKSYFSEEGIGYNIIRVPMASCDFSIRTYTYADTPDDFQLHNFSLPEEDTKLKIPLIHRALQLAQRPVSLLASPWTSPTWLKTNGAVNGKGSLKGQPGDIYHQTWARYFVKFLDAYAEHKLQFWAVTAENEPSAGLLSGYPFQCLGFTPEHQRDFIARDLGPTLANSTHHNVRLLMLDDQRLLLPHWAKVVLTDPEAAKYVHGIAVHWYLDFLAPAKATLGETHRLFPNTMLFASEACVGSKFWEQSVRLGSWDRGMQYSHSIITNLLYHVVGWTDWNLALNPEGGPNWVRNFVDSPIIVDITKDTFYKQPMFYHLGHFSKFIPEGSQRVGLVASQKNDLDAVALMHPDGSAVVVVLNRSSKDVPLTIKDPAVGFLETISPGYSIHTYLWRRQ
# output: bare number, implied unit %

- Compound: "Cc1cc(C)n2ccc(C(=O)Nc3cccc(CCC(=O)O)c3)c2n1 [compound 37]"
  Result Units: "%"
  Recorded Measurement: 427
- Compound: "Cc1cc(C)n2ccc(C(=O)Nc3cccc4c3CCCC4)c2n1 [compound 11]"
  Result Units: "%"
  Recorded Measurement: 400
- Compound: "Cc1cc(C)n2ccc(C(=O)Nc3cccc(C(=O)ON4C(=O)CCC4=O)c3)c2n1 [compound 6]"
  Result Units: "%"
  Recorded Measurement: 460

Consider the compound Cc1cc(C)n2ccc(C(=O)Nc3ccc4c(c3)CCO4)c2n1 [compound 30] . State its measured Emax.
198

Consider the compound Cc1cc(C)n2ccc(C(=O)Nc3ccc(C(=O)O)cc3)c2n1 [compound 21] . State its measured Emax.
622
